Measured values drawn from PubChem BioAssay (NCI) for this set.

Tested on: A549 NSCLC
Assay: NCI tumour cell line growth inhibition, 48 h
readout_kind: TGI

1. O=C(O)c1c[nH]cc1C(=O)O ... > 100 µM
2. Nc1nnc(-c2ccco2)c(-c2ccco2)n1 ... > 100 µM
3. CCOC(=O)C(NC(=O)NC(C(=O)OCC)C(=O)OCC)C(=O)OCC ... > 100 µM
4. CCOC(=O)c1c(C)n(Cc2ccc(Cl)cc2Cl)c2c1cc1oc(=O)c(=O)n3c(Cc4ccccc4)nc2c13 ... 13.5 µM

* * *

Tested on: MCF7 breast
Experiment: NCI tumour cell line growth inhibition, 48 h
Recorded TGI for the following compounds
readout_kind: TGI

1) CN(C)c1ccc(N=Nc2c([O-])ccc3ccccc23)cc1.[C-]#[O+].[C-]#[O+].[Ir] ... 31.8 µM
2) Nc1nnc(-c2ccco2)c(-c2ccco2)n1 ... > 100 µM
3) COC(=O)c1cc(-c2c[nH]cc2C(=O)OCc2ccccc2)cn1S(=O)(=O)c1ccc(C)cc1 ... > 100 µM
4) CC1=CC(=O)C(C(C)=Nc2ccccc2Cl)C(=O)O1 (centres undefined) ... > 100 µM
5) O=C(NCCNCCO)N/N=C/c1ccc([N+](=O)[O-])cc1 ... > 100 µM
6) CN1C(=O)C(O)CC1c1cccc(F)c1 (centres undefined) ... > 100 µM
7) Cc1cc(C)c(C)c(-n2[nH]c(=O)n(C)c2=O)c1C ... > 100 µM
8) Nc1ccc(S(=O)(=O)c2ccc(NC(=O)c3cccnc3)cc2)cc1 ... > 100 µM
9) NCCCc1ccc2oc3ccccc3c2c1 ... 34.2 µM
10) Cc1ccc(NC(=O)CC(=O)n2nc(C)c(N=Nc3ccc(S(=O)(=O)CCOS(=O)(=O)O)cc3)c2C)cc1 ... > 100 µM
11) CN(C)Cc1cc(N=Nc2ccccc2Cl)cc(CN(C)C)c1O ... > 100 µM
12) Cc1ccc2c(c1)ncn2-c1ncnc2c1CC(C)c1ccccc1N2C (centres undefined) ... 12.5 µM
13) C[C@H](CS(C)(=O)=O)Nc1ncc2cc(Oc3ccc(F)cc3F)c(=O)n(C)c2n1 ... > 25 µM
14) CC(=O)OC1C2(CC3N4C(=O)C5(CO)SSC4(CC31O)C(=O)N5C)OC(C)C(C)(C)C2=O (centres undefined) ... 0.403 µM
15) C=C(Br)CN(CC(=C)Br)C(C)=O ... > 100 µM
16) CCc1c2c(nc3cccc(N)c13)-c1cc3c(c(=O)n1C2)COC(=O)[C@]3(O)CC ... 0.0101 µM
17) CC(C)N1CSC(=S)N(Cc2ccccc2)C1 ... > 10 µM
18) CCOC(CCCN1CCC2(CC1)C(=O)N(C)CN2c1ccccc1)(OCC)c1ccc(F)cc1 ... 13.8 µM
19) NC1CNC(=O)c2cscc21 (centres undefined) ... > 100 µM
20) COC1OC(COC(=O)NCCCCC(=O)C(F)(F)F)C(O)C(O)C1O (centres undefined) ... > 100 µM
21) Cc1nnc2sc(-c3ccc(-c4ccccc4Cl)o3)nn12 ... > 100 µM
22) Nc1nc(OCc2ccccc2)nc2[nH]ncc12 ... 33.1 µM
23) CN(N)/N=N/c1nc[nH]c1C(N)=O ... > 100 µM
24) Cc1cc(NS(=O)(=O)c2ccc(Nc3c4ccccc4nc4ccc(C(=O)Nc5ccc(S(=O)(=O)N=C(N)N)cc5)cc34)cc2)no1 ... > 100 µM
25) C/C(=N\NC(N)=O)C(CN(C)C)C(c1ccccc1)c1c(O)c2ccccc2oc1=O (centres undefined) ... > 100 µM
26) CCOC(=O)CN1CCSC1=NC#N ... > 100 µM
27) Cn1cc(-c2ccc3c(c2)CCN3C(=O)Cc2cccc(C(F)(F)F)c2)c2c(N)ncnc21 ... 18.4 µM
28) CSc1c(C(=O)Nc2ccc(Cl)cc2)c(N)[nH]c(=O)c1C#N ... > 78.6 µM
29) CCN1C(=O)C(=Cc2ccc(-c3ccccc3)cc2)C(=O)N(CC)C1=S ... > 100 µM
